System: human lung fibroblasts (HLF)
Test: HLF proliferation by BrdU incorporation (DELFIA), driven by FBS or PDGF
Format: cell-based
Settings: Homo sapiens, Fibroblast, inhibition of BrdU incorporation, 24 h, EC80 concentration of PDGF, mean ± SEM, NC = not calculated due to incomplete curve, read-out: Proliferation vs PDGF pEC50 (converted)
assayReadout: EC50 (nM)
Supply the numeric figure in nM, leaving out any unit text.

Here are 5 compounds together with their reported answers.
compound: CC(C)N(CCCCOCC(=O)O)c1cnc(-c2ccccc2)c(-c2ccccc2)n1
assayReadout: EC50
uom: nM
measValue: 316
//
compound: CCCCC[C@H](O)/C=C/[C@H]1[C@H](O)CC(=O)[C@@H]1C/C=C\CCCC(=O)O [PGE2, prostaglandin E2]
assayReadout: EC50
uom: nM
measValue: 2.51
//
compound: CCc1cc2c(cc1CC)CC(NC[C@H](O)c1ccc(O)c3[nH]c(=O)ccc13)C2
assayReadout: EC50
uom: nM
measValue: 1.45
//
compound: NCCc1ccc(O)c(O)c1
assayReadout: EC50
uom: nM
measValue: 16600
//
compound: C=C[C@@]1(C)CC(=O)[C@]2(O)[C@@]3(C)[C@@H](O)CCC(C)(C)[C@@H]3[C@H](O)[C@H](OC(C)=O)[C@@]2(C)O1
assayReadout: EC50
uom: nM
measValue: 1050

// next entry
IN: Looking for the measured EC50 of OCc1cc(C(O)CNCCCCCCOCCCCc2ccccc2)ccc1O (stereo not shown) , can you help?
OUT: 0.0316

---

Tested on: human lung fibroblasts (HLF)
Assay: HLF proliferation by BrdU incorporation (DELFIA), driven by FBS or PDGF
Format: cell-based
Details: Homo sapiens, Fibroblast, inhibition of BrdU incorporation, 24 h, EC80 serum, percentage of maximal proliferation observed with serum, NC = not calculated due to incomplete curve, read-out: Proliferation vs serum Emax (% max)
assayReadout: Emax (%)
Quick reminder: number only, in %, skip the unit.

molecule: CCCCC(C)(O)C/C=C/[C@H]1[C@H](O)CC(=O)[C@@H]1CCCCCCC(=O)OC (mixture of isomers)
assayReadout: Emax
measValue: 34.7

molecule: CCCCC[C@H](O)/C=C/[C@H]1[C@H](O)CC(=O)[C@@H]1C/C=C\CCCC(=O)O [PGE2, prostaglandin E2]
assayReadout: Emax
measValue: 43.1

molecule: C=C[C@@]1(C)CC(=O)[C@]2(O)[C@@]3(C)[C@@H](O)CCC(C)(C)[C@@H]3[C@H](O)[C@H](OC(C)=O)[C@@]2(C)O1
assayReadout: Emax
measValue: 74

Below: the item to evaluate.
IN: Look up Emax with human lung fibroblasts (HLF) for this molecule: CCCC1([C@H](O)C/C=C/[C@H]2[C@H](O)CC(=O)[C@@H]2CCCCCCC(=O)OC)CCC1
OUT: 29.1

---

Readings of Emax for the listed compounds
Test system: human lung fibroblasts (HLF)
Test: HLF proliferation by BrdU incorporation (DELFIA), driven by FBS or PDGF
Format: cell-based
Conditions: Homo sapiens, Fibroblast, inhibition of BrdU incorporation, 24 h, EC80 serum, percentage of maximal proliferation observed with serum, NC = not calculated due to incomplete curve, read-out: Proliferation vs serum Emax (% max)
Entry rule: numbers only, all in %.

Some compounds with recorded Emax:
compound: CCCCC[C@H](O)CC[C@@H]1[C@H]2Cc3cccc(OCC(=O)O)c3C[C@H]2C[C@H]1O [Treprostinil]
measValue: 42.5

compound: CCc1cc2c(cc1CC)CC(NC[C@H](O)c1ccc(O)c3[nH]c(=O)ccc13)C2 [Indacaterol]
measValue: 47.9

compound: OCc1cc(C(O)CNCCCCCCOCCCCc2ccccc2)ccc1O (stereo not shown) [Salmeterol]
measValue: 37.7

# ---- query compound ----
IN: What value of measured Emax is listed for CC(C)(C)NCC(O)c1ccc(O)c(CO)c1 (stereo not shown) [Salbutamol] ?
OUT: 32.4
